- target: HNF4alpha8 (COS-7 nuclear extract) (Homo sapiens, UniProt P41235-5 1-452)
- Sequence: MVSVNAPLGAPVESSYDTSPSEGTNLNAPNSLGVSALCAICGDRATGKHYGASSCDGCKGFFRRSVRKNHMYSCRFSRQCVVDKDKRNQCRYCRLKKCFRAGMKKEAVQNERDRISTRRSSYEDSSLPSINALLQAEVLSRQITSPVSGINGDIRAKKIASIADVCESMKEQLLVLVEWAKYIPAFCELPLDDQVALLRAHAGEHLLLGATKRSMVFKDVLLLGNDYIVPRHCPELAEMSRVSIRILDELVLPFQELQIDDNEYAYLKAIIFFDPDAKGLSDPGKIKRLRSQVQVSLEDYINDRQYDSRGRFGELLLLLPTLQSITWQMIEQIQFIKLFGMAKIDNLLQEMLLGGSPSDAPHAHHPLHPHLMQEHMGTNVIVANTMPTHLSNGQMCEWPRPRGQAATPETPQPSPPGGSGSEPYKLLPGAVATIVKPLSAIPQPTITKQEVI
- test.protocol: protein-binding microarray; COS-7 nuclear extract on double-stranded Agilent 4x180k PBM; binding buffer, salt, pH and temperature not given in the material; high values mean tight binding
- experimental.conditions: chain copies: 2; label: 3' end of strand 1 on the slide; dsDNA, one strand shown
Over roughly 18,000 sequences, “log2 normalized intensity” has its median near 0.36; the highest 2% begin near 7.3. What follows is part of a selection rich in the highest values, with near analogues and random picks from the rest.
# key: entry, value: binding signal

{"biopolymer.sequence": "ATTGTGAAACGTTTGAATTCTTGCCTATCCGCCTAGGGAGATTAGAGTATCGGTCGA", "unit.name": "log2 normalized intensity", "binding signal": -0.841}
{"biopolymer.sequence": "GAAGGAGAGTGACCTCTGCTTGAAGGCATTGCCTAGGGAGATTAGAGTATCGGTCGA", "unit.name": "log2 normalized intensity", "binding signal": 1.78}
{"biopolymer.sequence": "GTCAGATGACAGAATTGGTCCTGGAACTCAGCCTAGGGAGATTAGAGTATCGGTCGA", "unit.name": "log2 normalized intensity", "binding signal": 0.192}
{"biopolymer.sequence": "GGCTGATGACCTTTGACTGAGATGGGAGCAGCCTAGGGAGATTAGAGTATCGGTCGA", "unit.name": "log2 normalized intensity", "binding signal": 4.58}
{"biopolymer.sequence": "CACCACTAGGAAACTGACCTTTGCTCATGAGCCTAGGGAGATTAGAGTATCGGTCGA", "unit.name": "log2 normalized intensity", "binding signal": 7.58}
{"biopolymer.sequence": "TCATTGATGAGTGACCTTTGACCTCAGAGAGCCTAGGGAGATTAGAGTATCGGTCGA", "unit.name": "log2 normalized intensity", "binding signal": 10.5}
{"biopolymer.sequence": "CATACCAGGTGTAAAGTCTGGCATACAGGGGCCTAGGGAGATTAGAGTATCGGTCGA", "unit.name": "log2 normalized intensity", "binding signal": 0.00259}
{"biopolymer.sequence": "AAAGACTTGCTCATTGATGAGTGACCTTTGGCCTAGGGAGATTAGAGTATCGGTCGA", "unit.name": "log2 normalized intensity", "binding signal": 7}
{"biopolymer.sequence": "GGCGAGTGTGCAATTAGAGCAAAGGTTACTGCCTAGGGAGATTAGAGTATCGGTCGA", "unit.name": "log2 normalized intensity", "binding signal": 3.57}
{"biopolymer.sequence": "GACCATGTGATGTGAAGAGTGTGGACTTTCGCCTAGGGAGATTAGAGTATCGGTCGA", "unit.name": "log2 normalized intensity", "binding signal": 4.87}
{"biopolymer.sequence": "TGTGAAGAGTGTGGACTTTCACCTCCACCAGCCTAGGGAGATTAGAGTATCGGTCGA", "unit.name": "log2 normalized intensity", "binding signal": 6.7}
{"biopolymer.sequence": "GATGAGTGACCTTTGACCTCAGAGAGCCGGGCCTAGGGAGATTAGAGTATCGGTCGA", "unit.name": "log2 normalized intensity", "binding signal": 9.88}
{"biopolymer.sequence": "GTGACTACCTGGTTAAAAGGACAACCTTCGGCCTAGGGAGATTAGAGTATCGGTCGA", "unit.name": "log2 normalized intensity", "binding signal": -0.397}
{"biopolymer.sequence": "TTTATTTGAAGAAATGGTGGACTTTGTAGCGCCTAGGGAGATTAGAGTATCGGTCGA", "unit.name": "log2 normalized intensity", "binding signal": 6.52}
{"biopolymer.sequence": "GCCAAGGGCAGTGTTTGCCCAGCTTGAATCGCCTAGGGAGATTAGAGTATCGGTCGA", "unit.name": "log2 normalized intensity", "binding signal": -0.771}
{"biopolymer.sequence": "GCTTGAGCGAGACAGCGGGTGTTTCTGGGAGCCTAGGGAGATTAGAGTATCGGTCGA", "unit.name": "log2 normalized intensity", "binding signal": 0.72}
{"biopolymer.sequence": "CTAGGAAACTGACCTTTGCTCATGACTATTGCCTAGGGAGATTAGAGTATCGGTCGA", "unit.name": "log2 normalized intensity", "binding signal": 6.61}
{"biopolymer.sequence": "GCCTCTCTGTGCTGGAACTTGCTTCCTTATGCCTAGGGAGATTAGAGTATCGGTCGA", "unit.name": "log2 normalized intensity", "binding signal": 1.37}
{"biopolymer.sequence": "AGTCTGGAGGGGTGCGAAGGTCGAGGCCAGGCCTAGGGAGATTAGAGTATCGGTCGA", "unit.name": "log2 normalized intensity", "binding signal": 3.39}
